Task for the reader: assign each of the following compounds its reported nuclear beta-catenin stimulation.
test: Wnt pathway potentiators raising nuclear beta-catenin – imaging, WNT3A-conditioned medium, mouse C2C12, NPC library, primary screen (AID 1117326); details: at 10 µM, stronger effect = higher value
Active and inactive are the calls of the source. No stated cut-off is given here; in the data, active means nuclear beta-catenin stimulation mostly above about 4.2% (no sharp cut-off); inactive means mostly below about 10%.

Solved entries:
compound=CCCCC1C(=O)N(c2ccccc2)N(c2ccccc2)C1=O parameter_measured="nuclear beta-catenin stimulation" value_observed="-2% (inactive)"
compound=Cc1ccc(C(=O)Nc2ccc(S(=O)(=O)O)c3cc(S(=O)(=O)O)cc(S(=O)(=O)O)c23)cc1NC(=O)c1cccc(NC(=O)Nc2cccc(C(=O)Nc3cc(C(=O)Nc4ccc(S(=O)(=O)O)c5cc(S(=O)(=O)O)cc(S(=O)(=O)O)c45)ccc3C)c2)c1 parameter_measured="nuclear beta-catenin stimulation" value_observed="-3.6% (inactive)"
compound=C[C@@H]1CN(CCCn2c3ccccc3c3ccccc32)C[C@H](C)N1 parameter_measured="nuclear beta-catenin stimulation" value_observed="6.5% (inactive)"
compound=CCOC(=O)NNc1nncc2ccccc12 parameter_measured="nuclear beta-catenin stimulation" value_observed="3.8% (inactive)"
compound=Nc1nc2c(ncn2COC(CO)CO)c(=O)[nH]1 parameter_measured="nuclear beta-catenin stimulation" value_observed="1.2% (inactive)"

Quick batch: nuclear beta-catenin stimulation for everything below.
1. CC(C(=O)O)c1ccc(CC2CCCC2=O)cc1 (stereo not drawn)
2. CCN1CCN(C(=O)N[C@@H](C(=O)N[C@@H]2C(=O)N3C(C(=O)O)=C(CSc4nnnn4C)CS[C@H]23)c2ccc(O)cc2)C(=O)C1=O
3. CCCc1cc(C(N)=S)ccn1

[out]
1. -1.5% (inactive)
2. -0.5% (inactive)
3. 0.2% (inactive)

----------
assay: yeast 75Q aggregation reduction – 75Q-TubU reporter (AID 1593); settings: Yeast 75Q polyglutamine aggregation reporter
parameter-measured: score
Give bare numbers.

Solved entries:
compound=CC(=O)OC/C=C(C)/C=C/C=C(C)/C=C/C1=C(C)CCCC1(C)C parameter_measured=score value_observed=1.02
compound="CC(=O)Nc1ccc(OCC(O)CNC(C)C)cc1 (stereo not drawn)" parameter_measured=score value_observed=1

Okay, now this compound:
[in] Value lookup for score; key = O=C(O)CCCCCCCC(=O)O
[out] 1.02

----------
Task for the reader: assign each of the following compounds its reported nuclear beta-catenin stimulation.
assay: Wnt pathway potentiators raising nuclear beta-catenin – imaging, WNT3A-conditioned medium, mouse C2C12, NPC library, primary screen (AID 1117326); conditions: at 10 µM, stronger effect = higher value
Numbers only, in %.

Solved entries:
compound=CC(=O)OCC(=O)[C@H]1CC[C@H]2[C@@H]3CCC4=CC(=O)CC[C@]4(C)[C@H]3CC[C@]12C value_observed=-1.4
compound=Nc1ncnc2c1ncn2[C@@H]1O[C@H](CO)[C@@H](O)[C@H]1O value_observed=10.9
compound="C=CC(N)CCC(=O)O (stereo not given)" value_observed=1.7
compound=COc1ccc2cc3[n+](cc2c1OC)CCc1cc2c(cc1-3)OCO2 value_observed=0.6
compound=NS(=O)(=O)c1cc(C(=O)O)c(NCc2ccco2)cc1Cl value_observed=0.5
compound=CCN(CC)CCNC(=O)c1cc(Cl)c(N)cc1OC value_observed=0.2
compound=COc1cc2c(N3CCN(C(=O)Nc4ccc(OC(C)C)cc4)CC3)ncnc2cc1OCCCN1CCCCC1 value_observed=1.7
compound=O=C1c2ccccc2C(=O)C1c1ccccc1 value_observed=0.3

Quick batch: nuclear beta-catenin stimulation for everything below.
1. CC1=C(C(=O)O)N2C(=O)[C@@H](NC(=O)[C@H](N)c3ccc(O)cc3)[C@H]2SC1
2. CCCOc1ccc2nc(NC(=O)OC)[nH]c2c1
3. N=C(N)N

[out]
1: 1.8; 2: 77; 3: -1.9

Quick batch: nuclear beta-catenin stimulation for everything below.
1. O=C(O)CCC(=O)Nc1ccc(S(=O)(=O)Nc2nccs2)cc1
2. NC(Cc1ccc(Cl)cc1)C(=O)O (stereo not given)
3. COc1cc(C(=O)OCCCN2CCCN(CCCOC(=O)c3cc(OC)c(OC)c(OC)c3)CC2)cc(OC)c1OC
4. COC(=O)Nc1nc2ccc(Sc3ccccc3)cc2[nH]1
5. O=NN(CCCl)C(=O)NCCCl
6. Nc1[nH]c(=O)ncc1F
7. COc1cc(C(=O)NCc2ccc(OCCN(C)C)cc2)cc(OC)c1OC

[out]
-0.6
1.4
1.3
56.8
4.9
0.9
9.2

Quick batch: nuclear beta-catenin stimulation for everything below.
1. COC(=O)C1=C(C)NC(C)=C(C(=O)OCC(C)C)C1c1ccccc1[N+](=O)[O-] (stereo not given)
2. Cc1ccc(C(=O)C(C)CN2CCCCC2)cc1 (stereo not given)
3. Cc1cc(O)cc(C)c1Cl

[out]
1: 6; 2: 1.5; 3: -0.1

----------
assay: restoration of touch response, mutant HTT neurons – whole organism, C. elegans mechanosensory neurons, N-terminal huntingtin (AID 1599); settings: C. elegans polyQ-huntingtin mechanosensory neurons, stronger effect = higher value
Measured potencies and affinities stand elsewhere.
parameter-measured: rescue above control
Numbers only.

compound=Oc1ccc(Cl)cc1Cc1cc(Cl)ccc1O value_observed=0
compound="CCCCC(CC)CN1CN(CC(CC)CCCC)CC(C)(N)C1 (stereo not given)" value_observed=0
compound=CN(C)/N=N/c1nc[nH]c1C(N)=O value_observed=-5.12
compound="NC(Cc1ccc(Cl)cc1)C(=O)O (stereo not given)" value_observed=22.3
compound=CCCCC1(COC(=O)CCC(=O)O)C(=O)N(c2ccccc2)N(c2ccccc2)C1=O value_observed=9.03

Quick batch: rescue above control for everything below.
1. CN1CCN(CCCN2c3ccccc3Sc3ccc(Cl)cc32)CC1
2. CCCN(CCC)C(=O)C(CCC(=O)O)NC(=O)c1ccccc1 (stereo not given)
3. CCCCC1C(=O)N(c2ccccc2)N(c2ccc(O)cc2)C1=O (stereo not given)
4. OCC(O)CN1CCN(c2ccccc2)CC1 (stereo not given)
5. CC(NCCC(c1ccccc1)c1ccccc1)c1ccccc1 (stereo not given)

[out]
1. 0
2. -3.65
3. -3.48
4. 10.9
5. 0

Quick batch: rescue above control for everything below.
1. NS(=O)(=O)c1cc2c(cc1Cl)NC(CSCc1ccccc1)=NS2(=O)=O
2. Cc1nnc(SCC2=C(C(=O)O)N3C(=O)[C@@H](NC(=O)Cn4cnnn4)[C@H]3SC2)s1
3. O=C(O)c1cc(=O)c2ccccc2o1
4. CC(N)CCCC(C)(C)O (stereo not given)

[out]
-12.2
4.54
-0.59
-5.82

Quick batch: rescue above control for everything below.
1. CCOc1ccc(Cc2nccc3cc(OCC)c(OCC)cc23)cc1OCC
2. CC(C)(Oc1ccc(Cl)cc1)C(=O)O
3. C[N+](C)(C)CCCCCC[N+](C)(C)C
4. Cc1c(N(C)CS(=O)(=O)O)c(=O)n(-c2ccccc2)n1C
5. C[N+]12CCC(CC1)C(OC(=O)C(O)(c1ccccc1)c1ccccc1)C2 (stereo not given)
6. Cn1c(=O)c2c(ncn2CC(O)CO)n(C)c1=O (stereo not given)
7. O=C1C(O)=C(O)C(=O)C(O)=C1O
8. NCCCCCC(=O)O

[out]
[-2.91, 11.6, -10.3, 6.62, 14.7, -16.2, -5.82, 1.88]

Quick batch: rescue above control for everything below.
1. CC(=O)OC/C=C(C)/C=C/C=C(C)/C=C/C1=C(C)CCCC1(C)C
2. Nc1c(Br)cc(Br)cc1CNC1CCC(O)CC1 (stereo not given)
3. Cc1cc(C)nc(NS(=O)(=O)c2ccc(N)cc2)n1
4. Cc1cc(C2CCCCC2)n(O)c(=O)c1
5. C1CCC(C(CC2CCCCN2)C2CCCCC2)CC1 (stereo not given)

[out]
[0.33, -1.56, -12.8, 6.29, -18]

Quick batch: rescue above control for everything below.
1. CN(C)CCCN1c2ccccc2Sc2ccc(C(F)(F)F)cc21
2. Cc1onc(-c2ccccc2Cl)c1C(=O)N[C@@H]1C(=O)N2[C@@H]1SC(C)(C)[C@@H]2C(=O)O
3. NS(=O)(=O)c1cc2c(cc1Cl)NC(C(Cl)Cl)NS2(=O)=O (stereo not given)

[out]
19.8
1.76
12.5

Quick batch: rescue above control for everything below.
1. O=C(O)c1cccnc1Nc1cccc(C(F)(F)F)c1
2. Oc1c(Cl)cc(Cl)c(Cl)c1Cc1c(O)c(Cl)cc(Cl)c1Cl

[out]
7.18
-6.64

Quick batch: rescue above control for everything below.
1. Cc1ccc(C(=O)c2ccc(CC(=O)O)n2C)cc1
2. O=C(O)CCC(=O)c1ccc(-c2ccccc2)cc1
3. Cc1cccc(C)c1OCC(C)N (stereo not given)

[out]
[-3.75, 4.61, 0.83]

Quick batch: rescue above control for everything below.
1. CN1CCN2c3ccccc3Cc3ccccc3C2C1 (stereo not given)
2. COc1ccccc1OCC(O)CO (stereo not given)
3. NC(=O)c1ccc([N+](=O)[O-])cc1Cl
4. Cc1cc(=O)n(-c2ccccc2)n1C
5. NC[C@H](O)c1ccc(O)c(O)c1

[out]
1. 36.1
2. -10.8
3. 31.2
4. 2.73
5. -5.19
